Where do the numbers come from? From paper PMC5320539.

- test-target: T1, hBfl-1ΔTm(1–149) (human)
- T1 chain: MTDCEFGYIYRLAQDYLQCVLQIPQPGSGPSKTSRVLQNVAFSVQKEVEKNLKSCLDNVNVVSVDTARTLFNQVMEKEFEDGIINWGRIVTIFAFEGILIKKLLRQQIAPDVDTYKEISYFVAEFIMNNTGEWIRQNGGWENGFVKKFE
- test-details: DELFIA displacement assay
Please provide measured IC50 for the entries that follow.

See these solved cases before continuing.
INSERT INTO results (binder, data_value) VALUES
  ('Ac-AATQLRRFGDKLN-NH2 [C1A_hNOXAs (Ac-AATQLRRFGDKLN-NH2)]', '> 1000 nM'),
  ('Ac-CATQLRRFGDKLNFRQKLLN-NH2 [hNOXA (Ac-CATQLRRFGDKLNFRQKLLN-NH2)]', '7.5 nM');

Below are some binders; for each one, tell me its IC50.
1. Ac-PADLKDECAQLRRIGDKVNL-NH2 [NOXA B (Ac-PADLKDECAQLRRIGDKVNL-NH2)]
2. Ac-CATQLRRFGDKLN-NH2 [hNOXAs (Ac-CATQLRRFGDKLN-NH2)]
3. Ac-AELPPEFAAQLRKIGDKVYC-NH2 [NOXA A (Ac-AELPPEFAAQLRKIGDKVYC-NH2)]
4. Ac-CATQLRRFGDKLNFRQKLLNLISKLFC-NH2 (also: cyclic (cyc_), mode of cyclisation not given here) [cyc_hNOXA (Ac-CATQLRRFGDKLNFRQKLLNLISKLFC-NH2)]

Result ::
["431 nM", "15 nM", "> 1000 nM", "86 nM"]
